- EXPERIMENTAL TARGET: D(2) dopamine receptor (Rattus norvegicus)
- Sequence (P61169 whole entry): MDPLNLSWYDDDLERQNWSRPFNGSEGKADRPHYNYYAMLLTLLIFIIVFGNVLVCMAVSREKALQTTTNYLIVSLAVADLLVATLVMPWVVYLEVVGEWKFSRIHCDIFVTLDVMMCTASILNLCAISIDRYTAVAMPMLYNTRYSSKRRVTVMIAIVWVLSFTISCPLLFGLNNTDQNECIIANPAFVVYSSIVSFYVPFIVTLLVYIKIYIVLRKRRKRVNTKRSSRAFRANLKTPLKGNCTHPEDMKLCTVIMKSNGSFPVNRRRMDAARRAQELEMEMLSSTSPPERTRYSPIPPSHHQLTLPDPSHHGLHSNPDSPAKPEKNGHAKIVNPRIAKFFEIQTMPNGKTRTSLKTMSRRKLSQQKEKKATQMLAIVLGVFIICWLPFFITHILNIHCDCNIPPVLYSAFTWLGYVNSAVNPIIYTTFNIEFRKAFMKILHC
- METHOD NOTES: Displacement of [3H]spiperone from dopamine D2 receptor in rat corpora striatum homogenates after 15 mins by liquid scintillation counting
READOUT KIND: Ki

> print(dat)
                                   molecule  readout.kind  assay.value
1  O=c1c2ccccc2nnn1CCN1CCN(c2cccc3ccccc23)CC1            Ki   > 10000 nM
2  O=c1c2ccccc2nnn1OCCCN1CCN(c2cccc3ccccc23)CC1            Ki      85.4 nM
3  O=c1c2ccccc2nnn1OCCN1CCN(c2cccc3ccccc23)CC1            Ki   > 10000 nM
4  O=c1c2ccccc2nnn1CCCN1CCN(c2cccc3ccccc23)CC1            Ki   > 10000 nM
5  N#CNC(=NCCCN1CCN(c2cccc3ccccc23)CC1)c1ccncc1            Ki      1600 nM
6  O=C1C2C3C=CC(C3)C2C(=O)N1OCCCN1CCN(c2cccc3ccccc23)CC1 (stereo not drawn)            Ki       263 nM
7  O=C1C2C3C=CC(C3)C2C(=O)N1OCCN1CCN(c2cccc3ccccc23)CC1 (stereo not drawn)            Ki   > 10000 nM
8  N#C/N=C(\NCCCN1CCN(c2cccc3ccccc23)CC1)c1ccccn1            Ki   > 10000 nM

----------
- EXPERIMENTAL TARGET: 5-hydroxytryptamine receptor 2C (Rattus norvegicus, UniProt P08909)
- Sequence (P08909 whole entry): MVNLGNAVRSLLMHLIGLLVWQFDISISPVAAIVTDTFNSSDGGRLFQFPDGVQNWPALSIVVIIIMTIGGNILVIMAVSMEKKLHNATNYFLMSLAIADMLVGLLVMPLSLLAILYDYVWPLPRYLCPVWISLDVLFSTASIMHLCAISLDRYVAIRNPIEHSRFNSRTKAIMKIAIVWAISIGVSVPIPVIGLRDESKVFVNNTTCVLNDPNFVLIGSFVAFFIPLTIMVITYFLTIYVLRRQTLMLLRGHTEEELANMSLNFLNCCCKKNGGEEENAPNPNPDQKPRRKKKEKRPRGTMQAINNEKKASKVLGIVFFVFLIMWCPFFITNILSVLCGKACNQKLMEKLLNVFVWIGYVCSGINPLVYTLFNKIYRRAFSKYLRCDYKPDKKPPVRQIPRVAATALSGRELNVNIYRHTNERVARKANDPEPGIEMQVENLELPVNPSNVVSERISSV
- METHOD NOTES: Displacement of [3H]mesulergine from 5HT2C receptor in Sprague-Dawley rat frontal cortical homogenates after 15 mins
- PROTOCOL CONDITIONS: read-out: Ki
pKi: −log10 of the molar value.
Some molecules, each annotated with its measured pKi.
READOUT KIND: pKi

> print(dat)
                              record.smiles  readout.kind  assay.value
1  O=c1c2ccccc2nnn1CCN1CCN(c2cccc3ccccc23)CC1           pKi       < 5.00
2  O=c1c2ccccc2nnn1CCCN1CCN(c2cccc3ccccc23)CC1           pKi       < 5.00

----------
- Test system: PC-3
- METHOD NOTES: Cell cycle arrest in human PC3 cells assessed as accumulation at G1 phase at 15 uM after 24 hrs using propidium iodide staining by flow cytometry (reference value: 46.97 %)
- Type: functional
Listed next: entries and their corresponding Activity.
READOUT KIND: Activity (%)

> print(dat)
                              record.smiles  experimental.target  readout.kind  units  assay.value
1         Br.CCCN(CCC)[C@H]1CCc2cccc(O)c2C1                 PC-3      Activity      %        40.62
2  Br.COc1ccccc1N1CCN(CCCCN2C(=O)c3ccccc3C2=O)CC1                 PC-3      Activity      %         37.1
3  O=c1c2ccccc2nnn1CCCN1CCN(c2cccc3ccccc23)CC1                 PC-3      Activity      %        37.55
4  O=c1c2ccccc2nnn1CCN1CCN(c2cccc3ccccc23)CC1                 PC-3      Activity      %        38.38

----------
- System: PC-3
- METHOD NOTES: Induction of apoptosis in human PC3 cells at 15 uM after 24 hrs using propidium iodide staining by flow cytometry (reference value: 1.27 %)
- Assay type: functional
Each entry below carries its recorded Activity.
READOUT KIND: Activity (%)

> print(dat)
                              record.smiles  units  assay.value
1  O=c1c2ccccc2nnn1CCN1CCN(c2cccc3ccccc23)CC1      %         2.17
2  Br.COc1ccccc1N1CCN(CCCCN2C(=O)c3ccccc3C2=O)CC1      %         2.42
3  O=c1c2ccccc2nnn1CCCN1CCN(c2cccc3ccccc23)CC1      %         1.71
4         Br.CCCN(CCC)[C@H]1CCc2cccc(O)c2C1      %         0.73

----------
Entries and their measured Activity follow.
- Test system: PC-3
- METHOD NOTES: Induction of apoptosis in human PC3 cells at 15 uM after 72 hrs using propidium iodide staining by flow cytometry (reference value: 1.79 %)
- Format: functional
READOUT KIND: Activity (%)

> print(dat)
                              record.smiles  experimental.target  assay.value
1  O=c1c2ccccc2nnn1CCN1CCN(c2cccc3ccccc23)CC1                 PC-3         2.17
2  Br.COc1ccccc1N1CCN(CCCCN2C(=O)c3ccccc3C2=O)CC1                 PC-3         3.05
3  O=c1c2ccccc2nnn1CCCN1CCN(c2cccc3ccccc23)CC1                 PC-3         2.25
4         Br.CCCN(CCC)[C@H]1CCc2cccc(O)c2C1                 PC-3         2.65

----------
Below, each of the compounds is paired with its reported Activity value.
- System: PC-3
- METHOD NOTES: Induction of apoptosis in human PC3 cells at 15 uM after 48 hrs using propidium iodide staining by flow cytometry (reference value: 0.84 %)
- Assay type: functional
READOUT KIND: Activity (%)

> print(dat)
                              record.smiles  readout.kind  assay.value
1  O=c1c2ccccc2nnn1CCN1CCN(c2cccc3ccccc23)CC1      Activity         2.79
2         Br.CCCN(CCC)[C@H]1CCc2cccc(O)c2C1      Activity          2.2
3  Br.COc1ccccc1N1CCN(CCCCN2C(=O)c3ccccc3C2=O)CC1      Activity         1.77
4  O=c1c2ccccc2nnn1CCCN1CCN(c2cccc3ccccc23)CC1      Activity         2.12

----------
- EXPERIMENTAL TARGET: 5-hydroxytryptamine receptor 1A (Rattus norvegicus)
- Sequence (P19327 whole entry): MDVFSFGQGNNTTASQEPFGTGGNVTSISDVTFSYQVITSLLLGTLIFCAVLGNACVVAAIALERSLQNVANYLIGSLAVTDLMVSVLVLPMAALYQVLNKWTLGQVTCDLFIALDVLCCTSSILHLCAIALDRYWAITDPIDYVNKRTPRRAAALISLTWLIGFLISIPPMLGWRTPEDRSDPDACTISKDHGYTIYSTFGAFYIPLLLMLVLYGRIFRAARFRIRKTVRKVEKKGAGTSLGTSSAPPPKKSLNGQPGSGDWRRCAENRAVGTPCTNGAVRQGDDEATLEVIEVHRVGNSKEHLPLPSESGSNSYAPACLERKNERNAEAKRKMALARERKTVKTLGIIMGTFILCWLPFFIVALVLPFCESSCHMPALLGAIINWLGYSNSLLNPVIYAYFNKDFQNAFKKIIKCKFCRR
- METHOD NOTES: Displacement of [3H]8-OH-DPAT from 5HT1A receptor in Sprague-Dawley rat brain cortex homogenates after 30 mins by liquid scintillation counting
- Type: tissue-based
pKi: −log10 of the molar value.
# pKi values compiled below
READOUT KIND: pKi

> print(dat)
                                   compound  readout.qualifier  assay.value
1  O=C1C2C3C=CC(C3)C2C(=O)N1OCCCN1CCN(c2cccc3ccccc23)CC1 (configuration not stated)                  =         9.53
2  N#CNC(=NCCCN1CCN(c2cccc3ccccc23)CC1)c1ccncc1                  <         5.00
